// data source = patent US20210403506A1

subject_of_test: T1, human Chemokine like receptor 1 (human, UniProt Q99788 1-373)
T1 sequence (looked up): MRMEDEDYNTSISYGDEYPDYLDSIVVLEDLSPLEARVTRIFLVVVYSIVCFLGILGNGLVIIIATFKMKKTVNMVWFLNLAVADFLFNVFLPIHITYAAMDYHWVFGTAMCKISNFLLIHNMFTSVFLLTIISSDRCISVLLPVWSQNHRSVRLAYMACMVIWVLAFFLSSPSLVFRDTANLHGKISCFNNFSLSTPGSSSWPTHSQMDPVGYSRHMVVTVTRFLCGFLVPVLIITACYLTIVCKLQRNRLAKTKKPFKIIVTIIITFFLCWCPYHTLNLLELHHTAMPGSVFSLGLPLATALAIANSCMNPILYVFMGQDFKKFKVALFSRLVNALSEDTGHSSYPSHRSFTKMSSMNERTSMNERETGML
test_protocol: cell-based or functional assay
Square brackets hold non-standard residues; d marks the D form. Ends that are not written are not given here. dTyr(3-F) = N[C@H](Cc1ccc(O)c(F)c1)C(=O)O; 2Nal = N[C@@H](Cc1ccc2ccccc2c1)C(=O)O; Tic = O=C(O)[C@@H]1Cc2ccccc2CN1; NMeL = CN[C@@H](CC(C)C)C(=O)O; dTi1c = not defined here
Property: EC50 (µM), activation of Tango CMKLR1-bla U2OS cells; scope: individual binders
reported_endpoint: EC50 (µM), activation of Tango CMKLR1-bla U2OS cells

>>> result_value("[dTyr(3-F)]F[NMeL]P[dS]Q[2Nal][dA][Tic]S (not fully specified (residue 4); printed as [D-Tyr(3F)]-Phe-(NMe-Leu)-Pro(tran-4F)-(D-Ser)-Gln-(Nal-2)-(D-Ala)-Tic-Ser) [YW-222]")
0.00034
>>> result_value("[dY]FLP[dS]QF[dA][dTi1c]S-OH (reading uncertain; also: printed as (D-Tyr)-Phe-Leu-Pro-(D-Ser)-Gln-Phe-(D-Ala)-(D-Ti1c)-Ser) [YW-151]")
0.027
